# system: URAT-1 transporter (Homo sapiens)
# Construct: expressed in transfected cells
# Sequence (Q96S37 with tags, fused parts or gaps): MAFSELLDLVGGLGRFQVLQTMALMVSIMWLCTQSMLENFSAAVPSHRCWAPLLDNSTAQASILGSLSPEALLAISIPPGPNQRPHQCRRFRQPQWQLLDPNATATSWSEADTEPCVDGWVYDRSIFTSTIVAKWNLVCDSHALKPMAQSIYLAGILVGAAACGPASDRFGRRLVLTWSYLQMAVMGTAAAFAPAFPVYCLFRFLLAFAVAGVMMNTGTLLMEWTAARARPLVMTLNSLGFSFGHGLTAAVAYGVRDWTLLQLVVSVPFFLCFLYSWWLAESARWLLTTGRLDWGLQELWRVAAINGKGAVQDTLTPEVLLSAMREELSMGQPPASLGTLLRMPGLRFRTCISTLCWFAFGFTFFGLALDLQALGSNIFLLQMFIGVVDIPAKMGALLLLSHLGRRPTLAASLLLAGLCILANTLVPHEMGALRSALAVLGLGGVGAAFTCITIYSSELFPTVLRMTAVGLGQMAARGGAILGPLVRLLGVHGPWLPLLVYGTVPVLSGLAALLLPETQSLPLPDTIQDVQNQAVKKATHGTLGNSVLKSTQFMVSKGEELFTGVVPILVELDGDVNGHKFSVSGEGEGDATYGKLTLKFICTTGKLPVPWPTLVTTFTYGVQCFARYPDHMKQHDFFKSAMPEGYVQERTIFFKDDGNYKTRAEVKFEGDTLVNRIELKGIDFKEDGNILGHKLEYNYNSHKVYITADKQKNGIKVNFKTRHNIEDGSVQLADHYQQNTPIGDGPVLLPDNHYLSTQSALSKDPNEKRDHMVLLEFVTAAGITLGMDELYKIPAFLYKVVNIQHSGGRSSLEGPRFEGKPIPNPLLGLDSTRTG
# methodNotes: URAT-1 inhibitor activity: [14C]-uric acid uptake into CHO-URAT1(L)GFP#8 (CHO#8) cells, scintillation proximity
# Format: cell-based
pIC50: −log10 of the molar value.
# pIC50 per entry
quantity: pIC50

>>> print(df.to_string())
                               smilesrecord                             system  quantity  endpointvalue
0  N#Cc1ccc(Oc2ccc(S(=O)(=O)Nc3ncns3)cc2C#N)cc1  URAT-1 transporter (Homo sapiens)     pIC50         < 5.13
1  O=S(=O)(Nc1nncs1)c1cc(Cl)c(Oc2c(F)cccc2Cl)cc1F  URAT-1 transporter (Homo sapiens)     pIC50         < 5.62
2  N#Cc1cc(Oc2ccc(S(=O)(=O)Nc3ncns3)cc2C#N)ccc1F  URAT-1 transporter (Homo sapiens)     pIC50         < 5.48
3  Cc1ccc(Oc2cc(F)c(S(=O)(=O)Nc3nncs3)cc2Cl)cc1  URAT-1 transporter (Homo sapiens)     pIC50         < 5.00
4  CCNc1ccc(Oc2ccc(S(=O)(=O)Nc3nccs3)cc2C#N)cn1  URAT-1 transporter (Homo sapiens)     pIC50         < 5.00

Source listed as patent US20140315933A1.
